B1: POU domain, class 6, transcription factor 2, residues 609 to 663; numbered along this chain, P78424 (parent)
chain: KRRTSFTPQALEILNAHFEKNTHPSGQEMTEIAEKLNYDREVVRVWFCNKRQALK

# Variants of: B1
# ASSAY_REMARKS: abundance fitness (aPCA) (normalised: wild type 0, dead -1); higher = more abundant; growth selection in yeast, the domain comes from the species named
# RUN_PARAMETERS: Homo sapiens
abundance fitness below -0.1 gives 0; abundance fitness at or above it gives 1.

A selection of reference data follows.
{"columns": ["SEQUENCE_CHANGE", "GROUP_LABEL"],
 "data": [
  ["L11Q", 0],
  ["R44A", 1],
  ["S5L", 1]
]}

Task item: Quick check: does K50R have abundance fitness greater than or equal to -0.1?
Reply: 1

Task item: Could you please find out whether T30I has abundance fitness that meets -0.1 or exceeds it?
Reply: 1

Task item: Determine whether measured abundance fitness meets or exceeds -0.1 for E12K
Reply: 0

Task item: Confirm if abundance fitness reported for the variant K20C is -0.1 or above.
Reply: 0

Task item: Textbook exercise: given the entry E28A , state whether its abundance fitness is greater than or equal to -0.1.
Reply: 0

Source listed as the Human Domainome abundance scans (Beltran et al. 2025).
